system: EKVX NSCLC; test: NCI-60 one-dose screen, 48 h; details: 10 µM unless noted
This is part of a sample that, as a whole, favours compounds with a hit. Of some 83,000 tested, about 20% had one in any assay. The source made the active and inactive calls. Rule for the calls: active = growth percent below 10; inactive = the rest.
Reply using exactly one outcome from y (active), n (inactive)

{"compound": "CC(Nc1ncnc2ccc(-c3ccc4oc(N)nc4c3)cc12)c1ccccc1 (stereo not given)", "target_desc": "EKVX NSCLC", "assigned_category": "y"}
{"compound": "CC1=C(C)C(=O)C(N2CCSCC2)=CC1=O", "target_desc": "EKVX NSCLC", "assigned_category": "n"}
{"compound": "COc1ccc(N=Nc2c(N)nn3c(N)c(C#N)c(-c4ccccc4)nc23)cc1", "target_desc": "EKVX NSCLC", "assigned_category": "n"}
{"compound": "Cc1ccc(O)cc1Nc1nc(SCCN2CCOCC2)nc2c1cnn2CC(Cl)c1ccc(Br)cc1 (stereo not given)", "target_desc": "EKVX NSCLC", "assigned_category": "n"}

With those in mind, consider the next compound.
Given `Clc1ccc(-c2nc3c4c(-c5ccccc5)c(-c5ccccc5)n(Cc5ccccc5)c4ncn3n2)cc1` , state the outcome it received in this test.
y

---

system: MCF7 breast; assay: NCI-60 one-dose screen, 48 h (100 = growth as untreated, 0 = no growth, -100 = all killed); conditions: 10 µM unless noted
This is part of a sample that, as a whole, favours compounds with a hit. Of some 83,000 tested, about 20% had one in any assay.
reported_metric: growth (%)
Please reply with the bare figure in % and do not write the unit itself.

Some compounds with recorded growth:
{"compound": "O=C(c1ccc(O)cc1)C1[C@H](c2ccc(Cl)cc2)[C@@H](c2ccccc2)NC12C(=O)Nc1ccccc12 (some centres not stated)", "growth (%)": -6.29}
{"compound": "Cc1cc(C(NC(=O)CCCCCNc2cccc3c2C(=O)N(C2CCC(=O)CC2=O)C3=O)c2cccc(N(C)C)c2)c(O)c2ncccc12 (configuration not stated)", "growth (%)": 10.9}
{"compound": "Cc1ccc(Nc2nnc(-c3c[nH]c4ccccc34)o2)c(C)c1", "growth (%)": 14.3}
{"compound": "Oc1cncc(-c2ccc3ncnc(N4CCc5cc(F)c(Cl)cc54)c3c2)c1", "growth (%)": 35.3}
{"compound": "CN1CCN(C(=O)Oc2cc3c(c4ccccc24)[C@H](CCl)CN3C(=O)c2cc3cc(OCCCN4CCC4)ccc3[nH]2)[C@H]2CSSC[C@H]21", "growth (%)": 3.7}
{"compound": "COc1ccc(N=Nc2c(N)nn3c(N)c(C#N)c(-c4ccccc4)nc23)cc1", "growth (%)": 14.5}
{"compound": "Cc1ccc(N=Nc2c(N)nn3c(-c4cc5cc(Br)ccc5oc4=O)ccnc23)cc1", "growth (%)": 51.1}
{"compound": "N#C/C(=C/c1ccc(Cl)cc1)c1nnc(NC(=O)c2ccc(-n3c(=O)[nH]c4ccccc4c3=O)cc2)s1", "growth (%)": 38}
{"compound": "N#CC1=C(c2ccco2)Nc2c(c(-c3ccccc3)nn2-c2ccccc2)C12C(=O)Nc1ccc(Br)cc12 (configuration not stated)", "growth (%)": 39.8}
{"compound": "N#CC1=C(c2ccco2)Nc2c(c(-c3ccccc3)nn2-c2ccccc2)C12C(=O)Nc1ccc(Cl)cc12 (configuration not stated)", "growth (%)": 21.3}

// `COc1c(B(O)O)cc(F)cc1-c1nc2c(F)cc3[nH]ncc3c2c2c1CCCC2` : growth value = -2.86

// O=C1CCC(N2C(=O)c3cccc(NCCCCCC(=O)N4CCN(c5ccc6nc7c(nc6c5C(F)(F)F)C(=O)c5ncccc5C7=O)CC4)c3C2=O)C(=O)N1 (configuration not stated) : growth value = -71.6

// `CCCCC[C@@H]1C/C=C(\C)[C@@H](O)C(C)(C)C(=O)[C@@H](C)/C=C(\C)[C@@H]2C[C@H](O)C[C@](O)(CC(=O)O1)O2` : growth value = 7.53

Values compiled from PubChem BioAssay (NCI).
